The reported numbers originate from PubChem BioAssay AID504408.

# activation per entry
# Assay Notes: HSF-1 activators, primary screen, NIH3T3-HGL cells, MG132 stress, luminescence, single point (AID 504408);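 note: 0% = median of the neutral control wells and 100% = twice that signal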
# Measurement Context: NIH3T3-HGL HSF-1 luciferase reporter, MG132, 8 h; at 9 µM; hits give high values; 100% = twice DMSO control signal
About 5,200 (1.7%) of roughly 300,000 compounds were called active. This excerpt belongs to a sample that is enriched for actives.

>>> val("O=C(NCCc1c[nH]c2ccccc12)c1cccc(Br)c1")
"7.52% (inactive)"
>>> val("O=C(OCC(=O)N1CCCC1=O)c1cc(S(=O)(=O)N2CCOCC2)ccc1Cl")
"-4.42% (inactive)"
>>> val("CC1(c2ccccc2)NC(=O)N(CC(=O)Nc2cc(Cl)ccc2N2CCOCC2)C1=O (configuration not stated)")
"-13.3% (inactive)"
>>> val("COc1cccc(CC(=O)Nc2nc(-c3ccc(OC)c(OC)c3)cs2)c1")
"3.91% (inactive)"
>>> val("Cc1ccc(S(=O)(=O)N2CCCCC2)cc1C(=O)N(C)CC(=O)Nc1cccc(F)c1")
"5.46% (inactive)"
>>> val("COc1ccc(CCNc2nc(-c3cccc(NC(C)=O)c3)cs2)cc1OC")
"-4.33% (inactive)"

Q) Bench note: what activation did Cc1ccc(C2(C)NC(=O)N(CC(=O)Nc3ccccc3C(=O)N3CCCCC3)C2=O)cc1 (configuration not stated) show?
A) 20.7% (inactive)

Q) Endpoint output: activation of COc1cc(C(=O)OCc2ccc([N+](=O)[O-])cc2)cc(OC)c1OC . Value?
A) 12.4% (inactive)

Q) Requested read-out: activation. Entry: Cc1ccc(-c2csc(NC(=O)Cn3[nH]c(=O)c4ccccc4c3=O)n2)cc1
A) -17.7% (inactive)

Q) I'd like to know its activation. The compound in question is COC(=O)C(C)Oc1ccc2c(c1)O/C(=C\c1cccc(Br)c1)C2=O (configuration not stated)
A) -3.63% (inactive)

Q) Could you share which activation value was measured for COc1ccccc1C(=O)Nc1ccc(NC(=O)c2ccco2)c(C)c1 ?
A) -0.874% (inactive)

Q) Returns the measured activation for the input compound. Input: COc1ccc2c(c1)O/C(=C\c1ccccc1O)C2=O
A) 61.8% (active)

Q) Reported activation for O=C(Nc1cc(S(=O)(=O)N2CCOCC2)ccc1OCC(F)(F)F)c1ccc(N2CCCC2=O)cc1 : what is it?
A) -1.99% (inactive)

Q) Please look up its activation: O=C1Oc2ccccc2C(=O)/C1=C/c1ccccc1O
A) -36.2% (inactive)

###

# Assay Notes: HSF-1 activators, primary screen, NIH3T3-HGL cells, MG132 stress, luminescence, single point (AID 504408);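 note: 0% = median of the neutral control wells and 100% = twice that signal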
# Measurement Context: NIH3T3-HGL HSF-1 luciferase reporter, MG132, 8 h; at 9 µM; hits give high values; 100% = twice DMSO control signal
Out of some 300,000 compounds screened, about 5,200 (1.7%) were called active. The entries come from a sample that favours actives as a whole.
Each entry below carries its recorded activation.
Answer with a number only, understood to be in %.

Q) Data request, read-out activation, for Cc1ccc(-n2nc3ccc(NC(=O)/C=C/c4ccco4)cc3n2)cc1C
A) 21.6

Q) Bench note: what activation did N#CC1(NC(=O)COC(=O)CSc2ccc(F)cc2)CCCCC1 show?
A) 0.517
